In this section, each of the sequences is paired with its reported self-splicing fitness (ln).
Assay: self-splicing fitness, log relative to wild type (ln ratio); higher = more splicing; Tetrahymena group I intron in knt gene, E. coli kanamycin selection, DiMSum; sequences stand for … in CUCUCU…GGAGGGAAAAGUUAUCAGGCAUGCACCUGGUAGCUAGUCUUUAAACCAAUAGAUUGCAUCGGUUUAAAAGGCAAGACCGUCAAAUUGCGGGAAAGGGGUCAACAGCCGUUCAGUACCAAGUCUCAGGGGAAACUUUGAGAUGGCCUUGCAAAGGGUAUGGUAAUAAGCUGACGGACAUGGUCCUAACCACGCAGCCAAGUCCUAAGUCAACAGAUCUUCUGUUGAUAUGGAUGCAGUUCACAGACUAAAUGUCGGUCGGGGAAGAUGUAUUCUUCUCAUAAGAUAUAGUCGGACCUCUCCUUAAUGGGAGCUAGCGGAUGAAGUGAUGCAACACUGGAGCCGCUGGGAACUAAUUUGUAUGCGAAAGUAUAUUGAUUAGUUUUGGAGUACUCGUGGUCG;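 also: selection with 25 µg/mL kanamycin versus none on LB agar overnight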
Conditions: 37 °C
The response must contain the number and no unit.

Below, 3 sequences whose answers are already recorded.
INSERT INTO assay_data (biopolymer_sequence, quantitative_result) VALUES
  ('AGCAAGCAAUAUUACGUUCU', -0.279),
  ('CGAAAGCAAUAUUACGUUAG', -0.895),
  ('ACCGAGCAAUAUUACGCCAU', -2.05);

Exercise: Find the measured self-splicing fitness (ln) of CCGCAGCAAUAUUACGCUGG and report it.
Key: -2.92

Exercise: Find the measured self-splicing fitness (ln) of GGCGAGCAAUAUUACGACCU and report it.
Key: -0.976

Exercise: Find the measured self-splicing fitness (ln) of UUGCAGCAAUAUUACGACUA and report it.
Key: 0.519

Exercise: Find the measured self-splicing fitness (ln) of GAGUAGCAAUAUUACGCCUG and report it.
Key: -0.972

Exercise: Find the measured self-splicing fitness (ln) of GGCAAGCAAUAUUACGUUUA and report it.
Key: -0.0113

---

Experiment: self-splicing fitness, log relative to wild type (ln ratio); higher = more splicing; Tetrahymena group I intron in knt gene, E. coli kanamycin selection, DiMSum; sequences stand for … in CUCUCU…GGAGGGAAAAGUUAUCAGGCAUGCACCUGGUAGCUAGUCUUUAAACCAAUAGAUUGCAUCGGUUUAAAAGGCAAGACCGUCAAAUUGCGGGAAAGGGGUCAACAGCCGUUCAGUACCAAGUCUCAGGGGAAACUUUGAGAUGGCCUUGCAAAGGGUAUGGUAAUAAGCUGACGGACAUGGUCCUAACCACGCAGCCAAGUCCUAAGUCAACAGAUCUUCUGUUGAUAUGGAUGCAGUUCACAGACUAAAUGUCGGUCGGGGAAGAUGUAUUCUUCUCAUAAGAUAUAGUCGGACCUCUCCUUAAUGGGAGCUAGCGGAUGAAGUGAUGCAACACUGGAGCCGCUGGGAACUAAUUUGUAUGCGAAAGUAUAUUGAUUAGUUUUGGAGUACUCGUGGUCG
Conditions: 30 °C
In this section, each of the sequences is paired with its reported self-splicing fitness (ln).

INSERT INTO results (biopolymer_sequence, result) VALUES
  ('UAUAAGCAAUAUUACGAAUA', -1.55);

Exercise: Find the measured self-splicing fitness (ln) of UCGCAGCAAUAUUACGUUUA and report it.
Key: -1.78

Exercise: Find the measured self-splicing fitness (ln) of AGGCAGCAAUAUUACGGACA and report it.
Key: -0.916

---

Test: self-splicing fitness, log relative to wild type (ln ratio); higher = more splicing; Tetrahymena group I intron in knt gene, E. coli kanamycin selection, DiMSum; sequences stand for … in CUCUCU…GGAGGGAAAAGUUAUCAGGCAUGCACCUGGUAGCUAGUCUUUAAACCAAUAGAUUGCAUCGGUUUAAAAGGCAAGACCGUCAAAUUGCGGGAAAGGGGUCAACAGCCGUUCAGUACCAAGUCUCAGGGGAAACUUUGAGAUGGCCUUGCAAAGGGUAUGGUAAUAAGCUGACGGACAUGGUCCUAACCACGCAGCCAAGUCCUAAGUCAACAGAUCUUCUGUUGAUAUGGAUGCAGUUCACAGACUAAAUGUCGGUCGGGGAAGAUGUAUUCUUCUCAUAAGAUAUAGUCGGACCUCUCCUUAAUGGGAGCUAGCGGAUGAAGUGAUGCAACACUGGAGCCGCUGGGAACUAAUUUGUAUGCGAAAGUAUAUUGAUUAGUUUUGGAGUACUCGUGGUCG
Details: 37 °C
Mark NOT MET for self-splicing fitness (ln) values under -0.9, and MET for everything at or above.

These solved cases illustrate the format of a correct answer.
INSERT INTO results (biopolymer_sequence, class) VALUES
  ('UGACAGCAAUAUUACGCUUA', 'MET'),
  ('AGAGAGCAAUAUUACGACAA', 'NOT MET'),
  ('CAGGAGCAAUAUUACGUCCU', 'NOT MET'),
  ('GCCGAGCAAUAUUACGCAUC', 'NOT MET');

Exercise: Given AGUGAGCAAUAUUACGACGU , state whether its self-splicing fitness (ln) is at least -0.9.
Key: MET

Exercise: Given GAUUAGCAAUAUUACGUAGG , state whether its self-splicing fitness (ln) is at least -0.9.
Key: NOT MET

Exercise: Given CGAAAGCAAUAUUACGCAAA , state whether its self-splicing fitness (ln) is at least -0.9.
Key: NOT MET

---

Assay: self-splicing fitness, log relative to wild type (ln ratio); higher = more splicing; Tetrahymena group I intron in knt gene, E. coli kanamycin selection, DiMSum; sequences stand for … in CUCUCU…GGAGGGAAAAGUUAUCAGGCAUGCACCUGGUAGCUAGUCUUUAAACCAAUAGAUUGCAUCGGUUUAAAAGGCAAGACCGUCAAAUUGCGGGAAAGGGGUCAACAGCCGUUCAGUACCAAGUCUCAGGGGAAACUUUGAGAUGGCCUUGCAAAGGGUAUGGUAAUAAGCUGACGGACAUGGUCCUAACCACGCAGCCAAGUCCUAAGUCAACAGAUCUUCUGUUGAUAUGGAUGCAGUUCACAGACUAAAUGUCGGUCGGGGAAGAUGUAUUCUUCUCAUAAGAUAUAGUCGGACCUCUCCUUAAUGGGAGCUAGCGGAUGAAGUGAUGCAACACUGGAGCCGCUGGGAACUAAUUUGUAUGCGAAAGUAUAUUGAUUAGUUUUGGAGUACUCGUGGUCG
Conditions: 37 °C
REPORTED PROPERTY: self-splicing fitness (ln)

Below, 2 sequences whose answers are already recorded.
INSERT INTO assay_data (biopolymer_sequence, result) VALUES
  ('CCGCAGCAAUAUUACGGAAC', -3.41),
  ('ACGUAGCAAUAUUACGAGCU', -1.06);

Exercise: Find the measured self-splicing fitness (ln) of CGAAAGCAAUAUUACGAAAG and report it.
Key: -0.475

Exercise: Find the measured self-splicing fitness (ln) of UAGCAGCAAUAUUACGAUAU and report it.
Key: -2.98

Exercise: Find the measured self-splicing fitness (ln) of GGAUAGCAAUAUUACGGCAG and report it.
Key: -2.18

Exercise: Find the measured self-splicing fitness (ln) of ACUGAGCAAUAUUACGGCGU and report it.
Key: 0.0319

Exercise: Find the measured self-splicing fitness (ln) of CUCUAGCAAUAUUACGAUGA and report it.
Key: -1.93

Exercise: Find the measured self-splicing fitness (ln) of ACGCAGCAAUAUUACGUUUA and report it.
Key: -1.42

Exercise: Find the measured self-splicing fitness (ln) of GAAUAGCAAUAUUACGAUAC and report it.
Key: -0.123

Exercise: Find the measured self-splicing fitness (ln) of UGUCAGCAAUAUUACGUAAG and report it.
Key: 0.0208

Exercise: Find the measured self-splicing fitness (ln) of UCCGAGCAAUAUUACGCAGC and report it.
Key: -2.51

Exercise: Find the measured self-splicing fitness (ln) of GGUGAGCAAUAUUACGAUAU and report it.
Key: -1.83

Exercise: Find the measured self-splicing fitness (ln) of CGGGAGCAAUAUUACGUCGG and report it.
Key: -1.66

Exercise: Find the measured self-splicing fitness (ln) of CGUUAGCAAUAUUACGGAUC and report it.
Key: -1.13

Exercise: Find the measured self-splicing fitness (ln) of UAUAAGCAAUAUUACGAAAC and report it.
Key: -0.0191

Exercise: Find the measured self-splicing fitness (ln) of CACUAGCAAUAUUACGUGAC and report it.
Key: -2.36

Exercise: Find the measured self-splicing fitness (ln) of UGCAAGCAAUAUUACGUGCA and report it.
Key: -3.18

Exercise: Find the measured self-splicing fitness (ln) of AGGCAGCAAUAUUACGGACA and report it.
Key: -0.346

Source listed as the supplement of paper PMC7877785.
